- target-under-test: HLA-A*31:01
- method: IEDB peptide-MHC binding, purified MHC/direct/fluorescence; filed as Kd, often an IC50 or EC50 that approximates it; bounds were set here for any values at or beyond the usual limits of such assays
- protocol-conditions: source organism: Mammarenavirus juninense
pKd: −log10 of the molar value.
endpoint: pKd

Please report pKd for the following sequence: "QVKRREGMF"
≤ 4.70

====

- target-under-test: HLA-A*26:01
- method: IEDB peptide-MHC binding, purified MHC/competitive/fluorescence; filed as Kd, often an IC50 or EC50 that approximates it; bounds were set here for any values at or beyond the usual limits of such assays
- protocol-conditions: source organism: Salmonella enterica subsp. enterica serovar Typhi str. CT18
pKd: −log10 of the molar value.
endpoint: pKd

Name the recorded pKd of the sequence listed here: "KSKPRIHGY"
≤ 4.70
